Attribute: log10(IC50)
System: LNCaP-Vancouver prostate cells
Test: In vitro LNCaP Vancouver prostate cell proliferation assay in lipid reduced medium
Format: cell-based
Settings: read-out: pIC50 LNCaP_Vancouver prostate cell (converted)
Reminder: these figures are log10 of reported IC50, in nM before transformation.

MOLECULE: O=C(C1CC1)N1CC[C@@H](CN2C(=O)C3(CC3)N=C2c2ccc(-c3ccc4[nH]ccc4c3)c(F)c2)C1 [compound 234]
MEASURED_NUMBER: 2.39

# evaluate next
Fill in: log10(IC50) of Cc1ccc2cc(-c3ccc(C4=NC5(CC5)C(=O)N4CC4CN(C(=O)C5CC5)C4)cc3)ccc2n1 [compound 510] is ___
3.68
